B1: tRNA (parent)
chain: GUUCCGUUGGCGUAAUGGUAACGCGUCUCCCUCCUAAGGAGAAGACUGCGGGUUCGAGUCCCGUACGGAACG

Variants of: B1
assay_name: yeast fitness, log relative to wild type (ln ratio); higher = fitter; tRNA-Arg(CCU), competitive growth, 37 C, 1 M NaCl
readout_name: yeast fitness (ln)
// no unit, no text: just the number

{"mutation_code": "G1A G6U C27U A43C C46U C66A A69G A70G", "yeast fitness (ln)": -0.432}
{"mutation_code": "G6U C27U A43C C46U C66U A70U C71U", "yeast fitness (ln)": -0.467}
{"mutation_code": "U2G G6U C27U A43C C46U C66A A70U", "yeast fitness (ln)": -0.017}

yeast fitness (ln) for U2C G6A ?
0.0247

yeast fitness (ln) for U2G G6A C46U C66A A69G A70G C71U ?
-0.193

yeast fitness (ln) for G1A C27U A69G A70G C71U ?
-0.322

yeast fitness (ln) for A43C C66A A70G ?
-0.0269

yeast fitness (ln) for G1A C27U C46U C66A ?
-0.151

yeast fitness (ln) for G1A U2G G6A C27U A69G A70G ?
-0.428

yeast fitness (ln) for U2G G6U A43C C46U C66A ?
-0.205

yeast fitness (ln) for G1A G6U C27U A69G A70G C71U ?
-0.376

yeast fitness (ln) for U2G G6U C27U A43C C46U C66A A70G C71U ?
-0.197

yeast fitness (ln) for G1A U2G C27U A43C C46U C66A A70U ?
-0.175

yeast fitness (ln) for G1A G6U C27U A43C C46U C66U A69G A70U C71U ?
-0.565

yeast fitness (ln) for G1A G6A C27U C46U C66U A70G ?
-0.236

yeast fitness (ln) for G6A A69G A70U ?
-0.082

yeast fitness (ln) for G1A U2G G6U C27U A43C C46U C66A C71U ?
-0.41

yeast fitness (ln) for U2C G6A C27U C46U A69G A70U ?
-0.152

yeast fitness (ln) for G1A U2C G6U C46U C66A A69G A70U ?
0.0136

yeast fitness (ln) for U2G G6A C46U C71U ?
-0.149

yeast fitness (ln) for G1A U2G A43C C66U A70G C71U ?
-0.22

yeast fitness (ln) for C66A A70G C71U ?
-0.0666

yeast fitness (ln) for U2C C27U C66U A70G ?
-0.0659

yeast fitness (ln) for G1A U2G C27U C66U A70G ?
-0.194
